# METHOD NOTES: reversed-phase LC retention time (C18, 15 min MeOH gradient); higher = more hydrophobic / later elution
# CONDITION DESCRIPTION: ionization mode: ESI+; ion species: [M+H]+
READOUT TYPE: reversed-phase LC retention time (min)

INSERT INTO measurements (compound, readout_type, value_reported) VALUES
  ('CC(=O)O[C@]1(C(C)=O)CC[C@H]2[C@@H]3C=C(C)C4=CC(=O)CC[C@]4(C)[C@H]3CC[C@@]21C [Megestrol-17-acetate]', 'reversed-phase LC retention time', 15.2),
  ('CCCCNc1ccc(C(=O)OCCN(C)C)cc1', 'reversed-phase LC retention time', 11.2),
  ('c1ccc2ncccc2c1', 'reversed-phase LC retention time', 9.66),
  ('CO/N=C(\C(=O)OC)c1ccccc1COc1ccccc1C', 'reversed-phase LC retention time', 15.4),
  ('CN1C(=O)C(O)N=C(c2ccccc2)c2cc(Cl)ccc21 (configuration not stated)', 'reversed-phase LC retention time', 13.4),
  ('CCOC(=O)CC(O)(CC(=O)OCC)C(=O)OCC [Triethylcitrate]', 'reversed-phase LC retention time', 11.8),
  ('Cn1cnc2c1c(=O)n(CCCC(=O)O)c(=O)n2C', 'reversed-phase LC retention time', 8.35),
  ('COc1ccc(-c2coc3cc(O)ccc3c2=O)cc1', 'reversed-phase LC retention time', 13.2),
  ('CCOC(=O)c1ccc(N(C)C)cc1 [Ethyl 4-(dimethylamino)benzoate]', 'reversed-phase LC retention time', 14.2),
  ('CC(C1CC1)C(O)(Cn1cncn1)c1ccc(Cl)cc1 (configuration not stated) [Cyproconazole_1]', 'reversed-phase LC retention time', 14.4),
  ('CCC(=O)Nc1ccc(Cl)c(Cl)c1', 'reversed-phase LC retention time', 13.8),
  ('CC[C@H](C)[C@H]1O[C@]2(C=C[C@@H]1C)C[C@@H]1C[C@@H](C/C=C(\C)[C@@H](O[C@H]3C[C@H](OC)[C@@H](O[C@H]4C[C@H](OC)[C@@H](NC)[C@H](C)O4)[C@H](C)O3)[C@@H](C)/C=C/C=C3\CO[C@@H]4[C@H](O)C(C)=C[C@@H](C(=O)O1)[C@]34O)O2', 'reversed-phase LC retention time', 17),
  ('Fc1ccc(Oc2ccnc3cc(Cl)cc(Cl)c23)cc1', 'reversed-phase LC retention time', 17.1),
  ('Cc1cccc(C)c1N(Cn1cccn1)C(=O)CS(=O)CC(=O)O (configuration not stated)', 'reversed-phase LC retention time', 9.7),
  ('N=C(Nc1ccccc1)Nc1ccccc1', 'reversed-phase LC retention time', 8.61),
  ('COc1cc(Cl)c(OC)cc1N', 'reversed-phase LC retention time', 10.3),
  ('N[C@@H](Cc1cc(I)c(Oc2cc(I)c(O)c(I)c2)c(I)c1)C(=O)O', 'reversed-phase LC retention time', 14),
  ('COCCCCC(=NOCCN)c1ccc(C(F)(F)F)cc1', 'reversed-phase LC retention time', 13.3),
  ('COc1cc2nc(N3CCNCC3)nc(N)c2cc1OC', 'reversed-phase LC retention time', 6.11),
  ('CC(C)(C)C(O)C(Oc1ccc(-c2ccccc2)cc1)n1cncn1 (configuration not stated)', 'reversed-phase LC retention time', 15.9),
  ('COC(=O)[C@H](C)N(C(=O)Cc1ccccc1)c1c(C)cccc1C', 'reversed-phase LC retention time', 15.6),
  ('C[C@]12CC[C@H]3[C@@H](CCC4=CC(=O)CC[C@@]43C)[C@@H]1CC[C@@H]2O', 'reversed-phase LC retention time', 14.2),
  ('CN(C)C(=O)C(CCN1CCC(O)(c2ccc(Cl)cc2)CC1)(c1ccccc1)c1ccccc1 [Loperamide]', 'reversed-phase LC retention time', 13.6),
  ('O=P(OCCCl)(OCCCl)OCCCl [Tris(2-chloroethyl)phosphate]', 'reversed-phase LC retention time', 11.7),
  ('O=P1(NCCCl)OCCCN1CCCl (configuration not stated) [Ifosfamide]', 'reversed-phase LC retention time', 10.2),
  ('CCCCCCCCCCCC(=O)NCC(C)O (configuration not stated) [Lauric isopropanolamide]', 'reversed-phase LC retention time', 16.6),
  ('CC(C)Oc1cc(-n2nc(C(C)(C)C)oc2=O)c(Cl)cc1Cl', 'reversed-phase LC retention time', 16.9),
  ('CC(Cc1ccc(C(C)(C)C(=O)O)cc1)CN1CC(C)OC(C)C1 (configuration not stated)', 'reversed-phase LC retention time', 10.8),
  ('CCCCCCCCCCCC[N+](C)(C)[O-] [N,N-Dimethyldodecylamine N-oxide]', 'reversed-phase LC retention time', 15.6),
  ('NC(CC(=O)N1CCn2c(nnc2C(F)(F)F)C1)Cc1cc(F)c(F)cc1F (configuration not stated)', 'reversed-phase LC retention time', 9.57),
  ('CCN(CC)c1ccccc1', 'reversed-phase LC retention time', 6.93),
  ('CC[C@H]1OC(=O)C[C@@H](O)[C@H](C)[C@@H](O[C@@H]2O[C@H](C)[C@@H](O[C@H]3C[C@@](C)(O)[C@@H](O)[C@H](C)O3)[C@H](N(C)C)[C@H]2O)[C@@H](CC=O)C[C@@H](C)C(=O)/C=C/C(C)=C/[C@@H]1CO[C@@H]1O[C@H](C)[C@@H](O)[C@@H](OC)[C@H]1OC', 'reversed-phase LC retention time', 13);

###

Reported collision cross section values for the following compounds.
# METHOD NOTES: collision cross section (TIMS, N2 drift gas) of the primary ion; higher = larger gas-phase ion size
# CONDITION DESCRIPTION: ionization mode: ESI+; ion species: [M+H]+
READOUT TYPE: collision cross section (Å²)

INSERT INTO measurements (compound, value_reported) VALUES
  ('C#C[C@]1(O)CC[C@H]2[C@@H]3CCC4=CC(=O)CC[C@@H]4[C@H]3CC[C@@]21C', 177.62),
  ('NC(CC(=O)N1CCn2c(nnc2C(F)(F)F)C1)Cc1cc(F)c(F)cc1F (stereo not given)', 192.92),
  ('CCCCCCCC/C=C\CCCCCCCCCCCC(N)=O [Erucamide]', 200.01),
  ('COc1ccc(-c2coc3cc(O)ccc3c2=O)cc1', 158.9),
  ('CCCNCCOc1c(Cl)cc(Cl)cc1Cl', 162.11);

###

# METHOD NOTES: reversed-phase LC retention time (C18, 15 min MeOH gradient); higher = more hydrophobic / later elution
# CONDITION DESCRIPTION: ionization mode: ESI+; ion species: [M+H]+
Reported reversed-phase LC retention time values for the following molecules.
READOUT TYPE: reversed-phase LC retention time (min)

INSERT INTO measurements (molecule, unit_of_measure, value_reported) VALUES
  ('Cc1ncc([N+](=O)[O-])n1CCO', 'min', 5.53),
  ('COC(=O)N(C(=O)N1CO[C@@]2(C(=O)OC)Cc3cc(Cl)ccc3C2=N1)c1ccc(OC(F)(F)F)cc1', 'min', 16.2),
  ('Nc1cnn(-c2ccccc2)c(=O)c1Cl', 'min', 9.16),
  ('CCC(=O)[C@@]1(C)[C@H](C)C[C@H]2[C@@H]3CCC4=CC(=O)C=C[C@]4(C)[C@H]3[C@@H](O)C[C@@]21C [Rimexolone]', 'min', 16),
  ('CCCCOC(=O)c1ccccc1C(=O)OCc1ccccc1 [Benzylbutylphthalate]', 'min', 16.3),
  ('COc1nc(C)nc(NC(=O)NS(=O)(=O)c2ccccc2Cl)n1', 'min', 12.1),
  ('COC=C(C(=O)OC)c1ccccc1Oc1cc(Oc2ccccc2C#N)ncn1', 'min', 13.8),
  ('O=C(O)c1ccc(-c2ccccc2-c2nnn[nH]2)cc1', 'min', 11.2),
  ('CC(=O)CC(c1ccccc1)c1c(O)c2ccccc2oc1=O (stereo not drawn)', 'min', 14.1),
  ('CCn1cc(C(=O)O)c(=O)c2cc(F)c(N3CCNCC3)cc21', 'min', 8.08),
  ('CC(=O)Nc1c(C)n(C)n(-c2ccccc2)c1=O [N-Acetyl-4-aminoantipyrine]', 'min', 7.85),
  ('CN1C(=O)CN=C(c2ccccc2)c2cc(Cl)ccc21', 'min', 14.2),
  ('CN(C)CCC=C1c2ccccc2CCc2ccccc21', 'min', 13.1),
  ('Cc1ccc(OP(=O)(Oc2ccc(C)cc2)Oc2ccc(C)cc2)cc1 [Tricresylphosphate]', 'min', 17.2),
  ('c1ccc2[nH]c(-c3cscn3)nc2c1', 'min', 8.08),
  ('Cc1ccc(N)cc1Cl', 'min', 12.2),
  ('CSc1nnc(C(C)(C)C)c(=O)n1N', 'min', 11.4),
  ('Nc1ccc2nc3ccc(N)cc3nc2c1', 'min', 8.22);

###

# METHOD NOTES: reversed-phase LC retention time (C18, 15 min MeOH gradient); higher = more hydrophobic / later elution
# CONDITION DESCRIPTION: ionization mode: ESI-; ion species: [M-H]-
Reported reversed-phase LC retention time values for the following compounds.
READOUT TYPE: reversed-phase LC retention time (min)

INSERT INTO measurements (compound, value_reported) VALUES
  ('C[C@H](CCC(=O)O)[C@H]1CC[C@H]2[C@@H]3[C@H](O)C[C@@H]4C[C@H](O)CC[C@]4(C)[C@H]3C[C@H](O)[C@]12C', 14.7),
  ('O=C1Nc2ccc(Cl)cc2C(c2ccccc2Cl)=NC1O (configuration not stated)', 13.5),
  ('CC(=O)[C@@]1(O)CC[C@H]2[C@@H]3C[C@H](C)C4=CC(=O)CC[C@]4(C)[C@H]3CC[C@@]21C', 15.6),
  ('COc1cc(NS(=O)(=O)c2ccc(N)cc2)nc(OC)n1', 6.81),
  ('CCC(=O)OCC(=O)C1(OC(=O)CC)C(C)CC2C3CCC4=CC(=O)C=CC4(C)C3(F)C(O)CC21C (configuration not stated) [Betamethasone dipropionate]', 16.2),
  ('C[C@@H]1NC(C)(C)CO[C@@]1(O)c1cccc(Cl)c1 [(S,S)-Hydroxybupropion]', 13.5),
  ('CC(C)(C)CC(C)(C)c1ccc(O)cc1', 17.3);
